Measured values drawn from patent US20260184663A1 for this set.

System: MDA-MB-231 (breast cancer)
Assay: Antiproliferative activity (CCK-8 cell viability), MDA-MB-231
Assay type: cell-based
Conditions: Homo sapiens, Compound concentration: 10 μM, 72 h, read-out: Antiproliferative activity in cancerous cells, MDA-MB-231 (inhibition of cell growth)
readout.name: inhibition at 10 µM

| compound | readout.name | measured.value |
| --- | --- | --- |
| COc1ccc(/C=C2/C(Cc3ccc(Oc4ccc(F)cc4)cc3)=C(CC(=O)O)c3cc(F)ccc32)cc1 | inhibition at 10 µM | ≥ 50% |
| CC1=C(CC(=O)O)c2cc(F)ccc2/C1=C\c1ccc(Oc2ccc(F)cc2)cc1Cl | inhibition at 10 µM | ≥ 50% |
| C/C(=C1/C=C(CC(=O)O)c2ccccc21)c1ccc(F)cc1 | inhibition at 10 µM | 30 to 50% |
| CCC1=C(CC(=O)O)c2cc(F)ccc2/C1=C\c1cccc(Oc2ccccc2)c1 | inhibition at 10 µM | ≥ 50% |
| O=C(O)CC1=C(CC2CCCC2)/C(=C/c2ccc(Oc3ccc(F)cc3)cc2)c2ccc(F)cc21 | inhibition at 10 µM | ≥ 50% |
| COc1ccc(Oc2ccc(/C=C3/C(C)=C(CC(=O)O)c4cc(F)ccc43)cc2)cc1Cl | inhibition at 10 µM | < 30% |
| CC1=C(CC(=O)O)c2c(F)cccc2/C1=C\c1cccc(Oc2ccccc2)c1 | inhibition at 10 µM | ≥ 50% |
| CC1=C(CC(=O)O)c2cc(F)ccc2/C1=C\c1ccc(COCc2ccc(Cl)cc2)cc1 | inhibition at 10 µM | ≥ 50% |
| CC1=C(CC(=O)O)c2c(F)cccc2/C1=C\c1ccc(Oc2ccc(F)cc2)cc1 | inhibition at 10 µM | 30 to 50% |
| O=C(O)CC1=C(Cc2ccc(Oc3ccc(F)cc3)cc2)/C(=C/c2ccc(Oc3ccc(F)cc3)cc2)c2ccc(F)cc21 | inhibition at 10 µM | ≥ 50% |
| CC1=C(CC(=O)O)c2cc(F)cc(F)c2/C1=C/c1ccc(COc2ccccc2)cc1 [E2] | inhibition at 10 µM | ≥ 50% |
| CC1=C(CC(=O)O)c2cc(Cl)ccc2/C1=C\c1cccc(Oc2ccc(C(F)(F)F)cc2)c1 | inhibition at 10 µM | ≥ 50% |
| CC1=C(CC(=O)O)c2cc(F)ccc2/C1=C\c1ccc(Oc2ccc(Cl)cc2Cl)cc1 | inhibition at 10 µM | ≥ 50% |
| CCc1ccc2c(c1)/C(=C\c1ccc(COc3ccccc3)cc1)C(C)=C2CC(=O)O | inhibition at 10 µM | < 30% |
| CC1=C(CC(=O)NCCN(C)C)c2cc(F)ccc2/C1=C\c1ccc(Oc2ccc(F)cc2)cc1 | inhibition at 10 µM | ≥ 50% |
| CC1=C(CC(=O)O)c2cc(Cl)ccc2/C1=C\c1ccc(COCc2ccc(Cl)cc2)cc1 | inhibition at 10 µM | < 30% |
| CC1=C(CC(=O)O)c2cc(F)ccc2/C1=C\c1ccc(COc2ccc(Cl)cc2)cc1C | inhibition at 10 µM | < 30% |
| COc1ccc(/C=C2/C(C)=C(CC(=O)O)c3cc(F)ccc32)c(OCc2ccccc2)c1 | inhibition at 10 µM | 30 to 50% |

* * *

System: MDA-MB-231 (breast cancer)
Assay: Antiproliferative activity (CCK-8 cell viability), MDA-MB-231
Assay type: cell-based
Details: Homo sapiens, Compound concentration: 10 μM, 72 h, read-out: Antiproliferative activity in cancerous cells, MDA-MB-231 (inhibition of cell growth)
Item-by-item account of inhibition at 10 µM
readout.name: inhibition at 10 µM

| entry.smiles | readout.name | measured.value |
| --- | --- | --- |
| CC1=C(CC(=O)O)c2cc(F)ccc2/C1=C/c1cccc(Oc2cccc(Cl)c2)c1 | inhibition at 10 µM | < 30% |
| CC1=C(CC(=O)O)c2cc(F)ccc2/C1=C\c1ccc(CCCc2ccccc2)cc1 | inhibition at 10 µM | < 30% |
| CC1=C(CC(=O)O)c2cc(F)ccc2/C1=C\c1ccc(OC2CCNCC2)cc1 | inhibition at 10 µM | < 30% |
| CC1=C(CC(=O)O)c2cc(Cl)ccc2/C1=C\c1ccc(COCc2ccc(F)cc2)cc1 | inhibition at 10 µM | 30 to 50% |
| CC1=C(CC(=O)O)c2cc(F)ccc2/C1=C\c1cccc(C2(c3ccccc3)SCCS2)c1 | inhibition at 10 µM | ≥ 50% |
| CC1=C(CC(=O)O)c2c(F)cc(F)cc2/C1=C\c1ccc(C(C)C)cc1 | inhibition at 10 µM | ≥ 50% |
| CC1=C(CC(=O)O)c2cc(F)ccc2/C1=C\c1ccc(COc2ccc(Cl)cc2)cc1Br | inhibition at 10 µM | 30 to 50% |
| COc1cc(Oc2cccc(/C=C3/C(C)=C(CC(=O)O)c4cc(F)ccc43)c2)ccc1Cl | inhibition at 10 µM | ≥ 50% |
| CC1=C(CC(=O)O)c2cc(F)ccc2/C1=C\c1ccc(-c2ccc(Cl)cc2)cc1 | inhibition at 10 µM | 30 to 50% |
| O=C(O)CC1=C(Cc2ccc(C(F)(F)F)cc2)/C(=C/c2ccc(Oc3ccc(F)cc3)cc2)c2ccc(F)cc21 | inhibition at 10 µM | ≥ 50% |
| CC1=C(CC(=O)O)c2cc(Cl)ccc2/C1=C/c1ccc(Oc2ccc(C(C)C)cc2)cc1 | inhibition at 10 µM | ≥ 50% |
| CC1=C(CC(=O)O)c2cc(Cl)ccc2/C1=C\c1cccc(Oc2ccc(C#N)cc2)c1 | inhibition at 10 µM | 30 to 50% |
| COc1ccc(S(=O)(=O)Cc2ccc(/C=C3/C(C)=C(CC(=O)O)c4cc(F)ccc43)cc2)cc1 | inhibition at 10 µM | 30 to 50% |
| CC1=C(CC(=O)O)c2cc(F)ccc2/C1=C\c1ccc(CN(Cc2ccccn2)c2ccccc2)cc1 | inhibition at 10 µM | ≥ 50% |
| CC1=C(CC(=O)O)c2cc(F)ccc2/C1=C\c1ccc(Oc2ccc(Cl)c(Cl)c2)cc1 | inhibition at 10 µM | ≥ 50% |
| CC1=C(CC(=O)O)c2cccc(F)c2/C1=C\c1cccc(COc2ccccc2)c1 | inhibition at 10 µM | 30 to 50% |
| O=C(O)CC1=C(Cc2ccc(Oc3ccc(F)cc3)cc2)/C(=C/C2CC2)c2ccc(F)cc21 | inhibition at 10 µM | ≥ 50% |

* * *

Test system: A431 (epidermoid carcinoma)
Assay: Antiproliferative activity (CCK-8 cell viability), A431
Format: cell-based
Conditions: Homo sapiens, A-431, Compound concentration: 10 μM, 72 h, read-out: Antiproliferative activity in cancerous cells, A431 (inhibition of cell growth)
Procedure: The antiproliferative activity of a compound was determined in the following cell lines: MDA-MB-231 (breast cancer), HepG2 (liver cancer), SW480 (colon cancer), B16F10 (malignant melanoma), A431 (epidermoid carcinoma), A549 (lung adenocarcinoma), and HeLa (cervical cancer). […] Briefly cells were seeded in a 96-well plate at a density of 2,000-5,000 cells/well. […] After incubation at 37° C. for 4 h, the absorbance value of each well was determined using a multi-well plate reader at 450 nm. […]
inhibition at 10 µM values for the compounds below.

| entry.smiles | inhibition at 10 µM |
| --- | --- |
| CC1=C(CC(=O)O)c2cc(C)ccc2/C1=C\c1cccc(Oc2ccccc2)c1 | ≥ 50% |
| CC1=C(CC(=O)O)c2cc(F)ccc2/C1=C/c1ccc(Oc2ccc(F)cc2F)cc1 | ≥ 50% |
| CC1=C(CC(=O)O)c2cc(F)ccc2/C1=C\c1ccc(Oc2ccc(F)c(Cl)c2)cc1 | ≥ 50% |
| CC1=C(CC(=O)O)c2cc(F)c(F)cc2/C1=C\c1ccc(COc2ccc(F)cc2)cc1 | 30 to 50% |
| CCC1=C(CC(=O)O)c2cc(F)ccc2/C1=C\c1cccc(COc2ccccc2)c1 | ≥ 50% |

* * *

Tested on: B16F10 (malignant melanoma)
Test: Antiproliferative activity (CCK-8 cell viability), B16F10
Assay type: cell-based
Conditions: Mus musculus, B16-F10, Compound concentration: 10 μM, 72 h, read-out: Antiproliferative activity in cancerous cells, B16F10 (inhibition of cell growth)
readout.name: inhibition at 10 µM

| compound | measured.value |
| --- | --- |
| CC1=C(CC(=O)O)c2cc(F)ccc2/C1=C\c1ccc(Oc2ccc(Cl)cc2F)cc1 [C52] | ≥ 50% |
| CC1=C(CCO)c2cc(F)ccc2/C1=C\c1ccc(Oc2ccc(F)cc2)cc1 [A201] | ≥ 50% |
| CC1=C(CC(=O)O)c2cccc(F)c2/C1=C/c1cccc(COc2ccccc2)c1 [E8] | 30 to 50% |
| COc1ccc2c(c1)C(CC(=O)O)=C(C)/C2=C/c1ccc(Oc2ccc(Cl)cc2)cc1 [C72] | ≥ 50% |
| CC1=C(CCC(=O)O)c2ccccc2/C1=C\c1cccc(COc2ccccc2)c1 [B15] | ≥ 50% |
